- Study Target: ATM (Homo sapiens)
- Construct: detecting phosphorylation of Chk2 in a human non-small cell lung cancer cell line NCI-H460 (ATCC company); host or cells: NCI-H460 human non-small cell lung cancer cells
- Sequence (Q13315 whole entry): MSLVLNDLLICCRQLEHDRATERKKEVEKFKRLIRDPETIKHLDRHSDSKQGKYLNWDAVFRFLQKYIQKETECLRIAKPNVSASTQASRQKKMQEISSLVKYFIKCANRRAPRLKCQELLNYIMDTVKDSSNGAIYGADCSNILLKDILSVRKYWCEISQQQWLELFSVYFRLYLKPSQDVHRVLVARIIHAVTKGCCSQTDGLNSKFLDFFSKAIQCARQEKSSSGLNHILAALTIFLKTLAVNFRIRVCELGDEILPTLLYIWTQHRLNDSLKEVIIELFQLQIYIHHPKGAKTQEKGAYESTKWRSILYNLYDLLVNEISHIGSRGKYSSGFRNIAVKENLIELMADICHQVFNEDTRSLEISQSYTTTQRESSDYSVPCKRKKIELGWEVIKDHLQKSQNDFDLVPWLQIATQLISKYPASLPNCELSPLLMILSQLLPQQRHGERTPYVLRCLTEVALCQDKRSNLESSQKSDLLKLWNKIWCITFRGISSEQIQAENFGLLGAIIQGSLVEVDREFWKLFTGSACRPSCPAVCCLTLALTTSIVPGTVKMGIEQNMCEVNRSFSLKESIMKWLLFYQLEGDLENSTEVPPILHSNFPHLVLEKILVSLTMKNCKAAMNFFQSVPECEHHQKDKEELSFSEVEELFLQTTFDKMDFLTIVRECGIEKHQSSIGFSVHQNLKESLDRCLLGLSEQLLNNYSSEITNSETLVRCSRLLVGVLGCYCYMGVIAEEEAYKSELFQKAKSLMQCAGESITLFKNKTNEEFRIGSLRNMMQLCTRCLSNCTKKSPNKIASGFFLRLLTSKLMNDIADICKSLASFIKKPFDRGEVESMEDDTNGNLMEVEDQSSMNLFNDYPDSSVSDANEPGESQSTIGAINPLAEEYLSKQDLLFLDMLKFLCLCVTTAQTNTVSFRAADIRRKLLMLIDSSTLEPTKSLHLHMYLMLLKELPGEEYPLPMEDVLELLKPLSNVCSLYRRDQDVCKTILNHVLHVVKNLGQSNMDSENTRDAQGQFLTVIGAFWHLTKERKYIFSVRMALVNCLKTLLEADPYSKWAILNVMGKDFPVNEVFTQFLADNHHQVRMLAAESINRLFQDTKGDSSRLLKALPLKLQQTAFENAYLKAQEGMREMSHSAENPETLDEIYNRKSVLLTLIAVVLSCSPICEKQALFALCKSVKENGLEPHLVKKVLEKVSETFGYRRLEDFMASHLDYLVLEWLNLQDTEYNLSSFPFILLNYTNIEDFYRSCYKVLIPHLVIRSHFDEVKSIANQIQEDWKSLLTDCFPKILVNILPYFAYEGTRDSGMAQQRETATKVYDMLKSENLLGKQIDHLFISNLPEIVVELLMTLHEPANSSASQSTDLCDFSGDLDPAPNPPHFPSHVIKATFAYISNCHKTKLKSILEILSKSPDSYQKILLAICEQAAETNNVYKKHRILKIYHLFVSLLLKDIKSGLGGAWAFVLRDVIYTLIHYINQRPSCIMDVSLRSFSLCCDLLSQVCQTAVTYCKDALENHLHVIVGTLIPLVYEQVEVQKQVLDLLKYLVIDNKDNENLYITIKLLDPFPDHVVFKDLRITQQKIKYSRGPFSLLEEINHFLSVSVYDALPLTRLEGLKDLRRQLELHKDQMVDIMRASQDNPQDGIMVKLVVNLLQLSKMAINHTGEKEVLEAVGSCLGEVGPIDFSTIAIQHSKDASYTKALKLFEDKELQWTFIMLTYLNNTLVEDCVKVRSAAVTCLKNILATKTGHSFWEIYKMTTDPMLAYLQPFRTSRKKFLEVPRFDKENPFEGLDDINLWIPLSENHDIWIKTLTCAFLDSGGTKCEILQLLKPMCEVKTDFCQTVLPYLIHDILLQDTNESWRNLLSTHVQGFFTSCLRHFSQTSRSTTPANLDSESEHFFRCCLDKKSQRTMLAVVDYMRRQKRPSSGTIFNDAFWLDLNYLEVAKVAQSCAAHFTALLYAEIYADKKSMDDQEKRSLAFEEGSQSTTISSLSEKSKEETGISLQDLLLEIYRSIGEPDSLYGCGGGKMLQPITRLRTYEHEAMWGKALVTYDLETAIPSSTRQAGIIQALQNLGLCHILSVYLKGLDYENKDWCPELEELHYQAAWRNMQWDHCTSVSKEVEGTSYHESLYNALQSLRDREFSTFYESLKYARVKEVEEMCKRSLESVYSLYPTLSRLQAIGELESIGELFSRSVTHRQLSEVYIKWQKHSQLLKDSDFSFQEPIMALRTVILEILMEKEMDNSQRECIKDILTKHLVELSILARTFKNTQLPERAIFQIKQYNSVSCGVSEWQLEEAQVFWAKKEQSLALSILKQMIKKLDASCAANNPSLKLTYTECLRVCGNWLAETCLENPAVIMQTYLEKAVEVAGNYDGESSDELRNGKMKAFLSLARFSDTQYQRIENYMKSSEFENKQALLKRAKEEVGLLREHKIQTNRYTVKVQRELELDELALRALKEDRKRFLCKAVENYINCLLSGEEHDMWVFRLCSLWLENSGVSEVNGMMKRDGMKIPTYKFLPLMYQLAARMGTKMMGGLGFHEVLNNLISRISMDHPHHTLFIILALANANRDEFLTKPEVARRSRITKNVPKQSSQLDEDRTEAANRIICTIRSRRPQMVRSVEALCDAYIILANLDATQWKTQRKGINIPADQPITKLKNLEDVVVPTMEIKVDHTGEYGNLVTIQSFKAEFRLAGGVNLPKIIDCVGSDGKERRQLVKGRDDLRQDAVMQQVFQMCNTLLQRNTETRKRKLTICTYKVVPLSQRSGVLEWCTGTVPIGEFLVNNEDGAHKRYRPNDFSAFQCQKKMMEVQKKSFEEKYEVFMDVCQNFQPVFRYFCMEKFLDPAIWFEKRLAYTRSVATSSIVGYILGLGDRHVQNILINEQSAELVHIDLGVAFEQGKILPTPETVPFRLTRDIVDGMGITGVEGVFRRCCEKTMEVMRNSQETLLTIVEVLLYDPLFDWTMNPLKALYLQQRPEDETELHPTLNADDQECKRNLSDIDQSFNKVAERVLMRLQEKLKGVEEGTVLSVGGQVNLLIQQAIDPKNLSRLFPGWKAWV
- Method Summary: ATM inhibition test (phosphorylation of Chk2 generated by ionizing radiation, AlphaScreen SureFire)
- Format: cell-based
- Particulars: phosphorylated Chk2 in NCI-H460 cells, ionizing radiation 8Gy, 1 hour after test compound treatment; read-out: ATM inhibitory activity
pIC50: −log10 of the molar value.
# pIC50 values compiled below

Worked cases, pIC50 given:
Lab note: need pIC50 with ATM (Homo sapiens) for entry Cc1ccc(C(C)Nc2ccc3c(c2)Sc2cccc(-c4cc(N5CCOCC5)cc(=O)[nH]4)c2S3)nc1 (single isomer, unassigned) [Example 1-12-143-1] , please look it up.
> 7.00

Lab note: need pIC50 with ATM (Homo sapiens) for entry O=c1cc(N2CCOCC2)cc(-c2cccc3c2Oc2ccc(NC4CCN(c5ccccn5)CC4)cc2C3)[nH]1 [Example 2-2-27] , please look it up.
6.30 to 7.00

Lab note: need pIC50 with ATM (Homo sapiens) for entry O=c1cc(N2CCOCC2)cc(-c2cccc3c2Sc2ccc(NC(CF)CN4CCOCC4)cc2S3)[nH]1 (racemic) [Example 1-41-1-1] , please look it up.
> 7.00

Lab note: need pIC50 with ATM (Homo sapiens) for entry O=c1cc(N2CCOCC2)cc(-c2cccc3c2Sc2ccc(NCc4ccnc(Cl)c4)cc2S3)[nH]1 [Example 1-12-18] , please look it up.
> 7.00

Lab note: need pIC50 with ATM (Homo sapiens) for entry COc1cc(CNc2ccc3c(c2)Sc2cccc(-c4cc(N5CCOCC5)cc(=O)[nH]4)c2O3)cnc1OC [Example 4-4-12] , please look it up.
> 7.00

Lab note: need pIC50 with ATM (Homo sapiens) for entry O=c1cc(N2CCOCC2)cc(-c2cccc3c2Oc2ccc(NCc4cccnc4)cc2CC3)[nH]1 [Example 2-51-2] , please look it up.
6.30 to 7.00

Lab note: need pIC50 with ATM (Homo sapiens) for entry O=c1cc(N2CCOCC2)cc(-c2cccc3c2Oc2ccc(NCc4ccnc(Br)c4)cc2S3)[nH]1 [Example 4-4-16] , please look it up.
> 7.00

Lab note: need pIC50 with ATM (Homo sapiens) for entry Cc1ccnc(C(CO)Nc2ccc3c(c2)Cc2cccc(-c4cc(N5CCOCC5)cc(=O)[nH]4)c2O3)c1 (racemic) [Example 2-14-39] , please look it up.
6.30 to 7.00

Lab note: need pIC50 with ATM (Homo sapiens) for entry O=c1cc(N2CCOCC2)cc(-c2cccc3c2Sc2ccc(NC4CCN(Cc5ccccn5)CC4)cc2S3)[nH]1 [Example 1-24-19] , please look it up.
6.30 to 7.00

Lab note: need pIC50 with ATM (Homo sapiens) for entry [2H]C([2H])([2H])C(Nc1ccc2c(c1)Sc1cccc(-c3cc(N4CCOCC4)cc(=O)[nH]3)c1S2)c1cccc(F)n1 (stereo not shown) [Example 1-12-134] , please look it up.
> 7.00

---
Lab note: need pIC50 with ATM (Homo sapiens) for entry Cn1cc(CNc2ccc3c(c2)Cc2cccc(-c4cc(N5CCOCC5)cc(=O)[nH]4)c2O3)ccc1=O [Example 2-2-45] , please look it up.
5.70 to 6.30

Lab note: need pIC50 with ATM (Homo sapiens) for entry CC(Nc1ccc2c(c1)Sc1cccc(-c3cc(N4CCOCC4)cc(=O)[nH]3)c1S2)c1ncccn1 (stereo not shown) [Example 1-12-68] , please look it up.
6.30 to 7.00
